Molecular target: T1, P11-AA
T1 chain: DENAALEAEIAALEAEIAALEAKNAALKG
Assay: two-hybrid library CCmax;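 also: natural log of median RNA to DNA barcode read ratio; higher means stronger binding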
Details: mean of both orientations
property label: interaction score
When you answer, write just the number.

Previously resolved entries follow.
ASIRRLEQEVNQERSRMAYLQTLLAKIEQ [4H_BCR] | -1.68
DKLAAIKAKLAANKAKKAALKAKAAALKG [AP2-AA] | -0.526
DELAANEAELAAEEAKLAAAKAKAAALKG [AP4-AA] | -0.858
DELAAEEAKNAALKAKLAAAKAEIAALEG [AP7-AA] | -0.965
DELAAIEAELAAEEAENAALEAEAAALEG [AP1-AA] | -1.38

Sample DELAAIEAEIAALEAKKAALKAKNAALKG [AP3-AA] — what was its interaction score?
-1.01

Item: DKNAALKAENAALEAKIAALKAKIAALKG [P10-AA]
1.43

Another binder to look at: DKLAAAKAEIAALEAELAANEAKKAALKG [AP8-AA]
-1.41

The measured values listed here are drawn from paper PMC10397247.
